Data origin, for the record: ChEMBL document CHEMBL1153135

Tested on: Candida parapsilosis
Assay: Antifungal activity against Candida parapsilosis PYCC 2545 after 48 hrs
Format: functional
Conditions: Lodderomyces parapsilosis, PYCC 2545, 48 h
reportedProperty: MIC50 (µM)

Take a look at these entries with their results.
molecularString	readoutUnits	MIC50
C[C@@H]1[C@H](O)[C@@H](C)/C=C/C=C/C=C/C=C/C=C/C=C/C=C/[C@H](O[C@@H]2O[C@H](C)[C@@H](O)[C@H](N)[C@@H]2O)C[C@@H]2O[C@](O)(C[C@@H](O)C[C@@H](O)[C@H](O)CC[C@@H](O)C[C@@H](O)CC(=O)O[C@H]1C)C[C@H](O)[C@H]2C(=O)O	µM	0.5
COC(=O)c1noc2c1C(=O)c1ccccc1C2=O	µM	1.3
CCOC(=O)CC1=C(Br)C(=O)c2ccccc2C1=O	µM	1.1
O=C1c2ccccc2C(=O)c2c(S(=O)(=O)c3ccccc3)noc21	µM	1.6
O=C(c1ccccc1)c1noc2c1C(=O)c1ccccc1C2=O	µM	13.2
COC1=C(Cl)C(=O)c2ccccc2C1=O	µM	5.3

(I) CCOC(=O)c1noc2c1C(=O)c1ccccc1C2=O
(II) CCOC1=C(Cl)C(=O)c2ccccc2C1=O
Req: Quick one: lower MIC50, I or II ? // respond with label for picked entry
Resp: I
(I: 0.6 µM, II: 48.3 µM)

* * *

Tested on: Nakaseomyces glabratus
Test: Antifungal activity against Candida glabrata PYCC 2418 after 48 hrs
Type: functional
Details: PYCC 2418, 48 h
reportedProperty: MIC50 (µM)

Below, each entry is followed by its recorded MIC50 result.
molecularString	experimentalSystem	resultValue
COC1=C(Cl)C(=O)c2ccccc2C1=O	Nakaseomyces glabratus	16.7
CCOC(=O)c1noc2c1C(=O)c1ccccc1C2=O	Nakaseomyces glabratus	0.6
O=C1c2ccccc2C(=O)c2c(S(=O)(=O)c3ccccc3)noc21	Nakaseomyces glabratus	1.5

(I) CCOC1=C(Cl)C(=O)c2ccccc2C1=O
(II) O=C(c1ccccc1)c1noc2c1C(=O)c1ccccc1C2=O
(III) CCOC(=O)CC1=C(Br)C(=O)c2ccccc2C1=O
Req: Please put the entries in order of rising MIC50. Respond with the label ranking, as requested.
Resp: I, III, II
(I: 3.8 µM, III: 12 µM, II: 47.6 µM)
